measurementProtocol: amyloid nucleation score (Sup35N fusion, yeast selection) (log enrichment); library NNK3; higher = more nucleation; inactive = no reads after selection;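 further: zero at mode of non-aggregating sequences after 7 days selection at 30°C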
endpoint: amyloid nucleation score

In the examples that follow, each entry is paired with its recorded amyloid nucleation score.
WLRSVLLRVTLLNSWHSWVS
inactive
ECDHSCGRWNWIN
inactive
AYMLGITQNNGNHLNSSRRR
inactive
ARLAYMYMEDGKCSTHRGKF
inactive
FFILFMRRLDW
0.323

// sample CRNESLACSKMSPSQRRSYT , its amyloid nucleation score was inactive

// sample NLTVGSTILIPC , its amyloid nucleation score was inactive

// sample YPCNFYWFRNILADTPIQYD , its amyloid nucleation score was inactive

// sample VWFLLSILPHLTKSVSWGNT , its amyloid nucleation score was inactive

// sample EVSGYINMR , its amyloid nucleation score was inactive

// sample SYRKEYYKLGHYSRRMQATS , its amyloid nucleation score was inactive

// sample GNGNFIRY , its amyloid nucleation score was inactive

// sample NFLKSG , its amyloid nucleation score was inactive

// sample AWYSDCRCVKPHVGRGNWCM , its amyloid nucleation score was inactive

// sample CGMCLGLLHR , its amyloid nucleation score was 0.898

// sample TSRNESHTSDYSLLNHNSLL , its amyloid nucleation score was inactive

// sample RWGLYLR , its amyloid nucleation score was inactive

// sample YGTNQMTLPKCRYWGFYREE , its amyloid nucleation score was -0.149

// sample FHTFSVCVGRGTMYYRALEE , its amyloid nucleation score was 0.277

// sample YMWKVVDCSPVVSTS , its amyloid nucleation score was -0.352
